Below are pIC50 measurements against Tyrosine-protein kinase Srms (Homo sapiens) drawn from the literature.
Sequence (Q9H3Y6 whole entry): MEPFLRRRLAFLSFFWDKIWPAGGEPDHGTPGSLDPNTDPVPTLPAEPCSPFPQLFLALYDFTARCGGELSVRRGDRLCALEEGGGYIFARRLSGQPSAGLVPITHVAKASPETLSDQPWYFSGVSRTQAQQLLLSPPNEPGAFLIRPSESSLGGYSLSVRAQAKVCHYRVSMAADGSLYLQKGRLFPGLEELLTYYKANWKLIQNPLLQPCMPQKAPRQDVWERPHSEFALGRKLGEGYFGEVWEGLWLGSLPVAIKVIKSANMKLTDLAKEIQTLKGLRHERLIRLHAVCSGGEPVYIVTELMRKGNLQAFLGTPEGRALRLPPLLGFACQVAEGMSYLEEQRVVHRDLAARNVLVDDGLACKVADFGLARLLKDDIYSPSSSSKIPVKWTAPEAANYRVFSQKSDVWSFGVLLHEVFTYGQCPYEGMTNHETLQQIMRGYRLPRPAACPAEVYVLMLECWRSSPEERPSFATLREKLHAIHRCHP
For clarity, pIC50 is expressed as the negative log10 of concentration in mol/L.

response.value for CC(C)C(=O)N1CCO[C@@H](c2nc(-c3ccc(C(=O)Nc4cc(C(F)(F)F)ccn4)cc3F)c3c(N)nccn23)C1 (field: pIC50) = 6.99

Consider Nc1nccn2c([C@@H]3CC[C@H]4CCC(=O)N4C3)nc(-c3ccc(C(=O)Nc4cc(C(F)(F)F)ccn4)cc3)c12 . Its measured pIC50 is 8.04

Memo: CC1(C)OC(=O)N2C[C@H](c3nc(-c4ccc(C(=O)Nc5cc(C(F)(F)F)ccn5)cc4)c4c(N)nccn34)CC[C@H]21 , reported pIC50: 8.10

# pIC50 (compound: CNC(=O)c1cc(Oc2ccc(NC(=O)Nc3cc(C(C)(C)C)nn3-c3ccc4ncccc4c3)c(F)c2)ccn1 ) is 6.43
